Catalogue of EC50 readings, one per entry.
system: HBV (HepG2.117 cell line, inducibly HBV producing); assay: Anti-HBV activity, intracellular HBV DNA by real-time PCR in HepG2.117 cell line; format: cell-based, hepatitis B virus; conditions: HepG2.117 cells, 3 days of treatment
assayMetric: EC50

[[record]]
compound = "Cc1nnc(C(C)N2C[C@@H](C)n3nc4c(c3C2=O)CN(C(=O)c2ccc(Cl)c(Cl)c2)[C@H](C)C4)o1 (single isomer, unassigned) [Compound 43A]"
reportedvalue = "0.31 µM"

[[record]]
compound = "CC(c1ccnc(Cl)c1)N1C[C@@H](C)n2nc3c(c2C1=O)CN(C(=O)c1ccc(Cl)c(Cl)c1)[C@H](C)C3 (single isomer, unassigned) [Compound 31A]"
reportedvalue = "0.051 µM"

[[record]]
compound = "CC(c1ccc(C(C)(C)O)nc1)N1C[C@@H](C)n2nc3c(c2C1=O)CN(C(=O)c1ccc(Cl)c(C#N)c1)[C@H](C)C3 (single isomer, unassigned) [Compound 63B]"
reportedvalue = "0.052 µM"

[[record]]
compound = "CC(c1ccc(C(C)(C)O)nc1)N1C[C@@H](C)n2nc3c(c2C1=O)CN(C(=O)c1ccc(Cl)c(F)c1F)[C@H](C)C3 (single isomer, unassigned) [Compound 61B]"
reportedvalue = "0.3 µM"

[[record]]
compound = "CC(c1ccc(C#N)cc1)N1C[C@@H](C)n2nc3c(c2C1=O)CN(C(=O)c1ccc(Cl)c(Cl)c1)[C@H](C)C3 (single isomer, unassigned) [Compound 66B]"
reportedvalue = "0.017 µM"

[[record]]
compound = "CC(C)Oc1cc(C(C)N2C[C@@H](C)n3nc4c(c3C2=O)CN(C(=O)c2ccc(Cl)c(C(F)(F)F)c2)[C@H](C)C4)ccn1 (single isomer, unassigned) [Compound 48B]"
reportedvalue = "0.028 µM"

[[record]]
compound = "CC(c1cc(F)c(=O)n(C)c1)N1C[C@@H](C)n2nc3c(c2C1=O)CN(C(=O)c1ccc(Cl)c(Cl)c1)[C@H](C)C3 (relative stereo) [Compound 45A]"
reportedvalue = "0.57 µM"

[[record]]
compound = "CC(c1nnc(C2CC2)o1)N1C[C@@H](C)n2nc3c(c2C1=O)CN(C(=O)c1ccc(Cl)c(Cl)c1)[C@H](C)C3 (single isomer, unassigned) [Compound 44A]"
reportedvalue = "0.22 µM"

[[record]]
compound = "CC(c1ccc(S(N)(=O)=O)cc1)N1C[C@@H](C)n2nc3c(c2C1=O)CN(C(=O)c1ccc(Cl)c(Cl)c1)[C@H](C)C3 (single isomer, unassigned) [Compound 16B]"
reportedvalue = "0.059 µM"

[[record]]
compound = "Cc1nnn(-c2ccc(C(C)N3C[C@@H](C)n4nc5c(c4C3=O)CN(C(=O)c3ccc(Cl)c(Cl)c3)[C@H](C)C5)cc2)n1 (single isomer, unassigned) [Compound 22B]"
reportedvalue = "0.02 µM"

[[record]]
compound = "CC(c1ccc(=O)n(C)n1)N1C[C@@H](C)n2nc3c(c2C1=O)CN(C(=O)c1ccc(Cl)c(Cl)c1)[C@H](C)C3 (single isomer, unassigned) [Compound 55B]"
reportedvalue = "0.06 µM"

[[record]]
compound = "CC(c1ccc(C#N)cc1)N1C[C@@H](C)n2nc3c(c2C1=O)CN(C(=O)c1ccc(Cl)c(Cl)c1)[C@H](C)C3 (single isomer, unassigned) [Compound 66A]"
reportedvalue = "0.037 µM"

[[record]]
compound = "CC(c1ncc(C(F)(F)F)cn1)N1C[C@@H](C)n2nc3c(c2C1=O)CN(C(=O)c1ccc(Cl)c(Cl)c1)[C@H](C)C3 (single isomer, unassigned) [Compound 40A]"
reportedvalue = "0.054 µM"

[[record]]
compound = "CC(c1cnn(C2CC2)c(=O)c1)N1C[C@@H](C)n2nc3c(c2C1=O)CN(C(=O)c1ccc(Cl)c(C(F)(F)F)c1)[C@H](C)C3 (single isomer, unassigned) [Compound 54A]"
reportedvalue = "0.16 µM"

[[record]]
compound = "CC(c1ccc(-c2ccn(C)n2)cc1)N1C[C@@H](C)n2nc3c(c2C1=O)CN(C(=O)c1ccc(Cl)c(C#N)c1)[C@H](C)C3 (single isomer, unassigned) [Compound 21A]"
reportedvalue = "0.035 µM"

[[record]]
compound = "CC(c1ccccn1)N1C[C@@H](C)n2nc3c(c2C1=O)CN(C(=O)c1ccc(Cl)c(Cl)c1)[C@H](C)C3 (single isomer, unassigned) [Compound 65B]"
reportedvalue = "0.046 µM"

[[record]]
compound = "CC(c1cnc(C(F)(F)F)cn1)N1C[C@@H](C)n2nc3c(c2C1=O)CN(C(=O)c1ccc(Cl)c(Cl)c1)[C@H](C)C3 (single isomer, unassigned) [Compound 7A]"
reportedvalue = "0.52 µM"

[[record]]
compound = "CC(c1ccc(C(C)(C)O)nc1)N1C[C@@H](C)n2nc3c(c2C1=O)CN(C(=O)c1cc(C(F)(F)F)c(Cl)cn1)[C@H](C)C3 (single isomer, unassigned) [Compound 58B]"
reportedvalue = "0.19 µM"

[[record]]
compound = "CC(c1cc(F)c(=O)n(C2CC2)c1)N1C[C@@H](C)n2nc3c(c2C1=O)CN(C(=O)c1ccc(Cl)c(Cl)c1)[C@H](C)C3 (single isomer, unassigned) [Compound 46B]"
reportedvalue = "0.031 µM"

[[record]]
compound = "CC(c1cnc(C(C)(C)O)nc1)N1C[C@@H](C)n2nc3c(c2C1=O)CN(C(=O)c1ccc(Cl)c(C(F)(F)F)c1)[C@H](C)C3 (single isomer, unassigned) [Compound 35B]"
reportedvalue = "0.01 µM"

